TARGET SYSTEM: human FPR2 (Homo sapiens, UniProt P25090)
Sequence (P25090 whole entry): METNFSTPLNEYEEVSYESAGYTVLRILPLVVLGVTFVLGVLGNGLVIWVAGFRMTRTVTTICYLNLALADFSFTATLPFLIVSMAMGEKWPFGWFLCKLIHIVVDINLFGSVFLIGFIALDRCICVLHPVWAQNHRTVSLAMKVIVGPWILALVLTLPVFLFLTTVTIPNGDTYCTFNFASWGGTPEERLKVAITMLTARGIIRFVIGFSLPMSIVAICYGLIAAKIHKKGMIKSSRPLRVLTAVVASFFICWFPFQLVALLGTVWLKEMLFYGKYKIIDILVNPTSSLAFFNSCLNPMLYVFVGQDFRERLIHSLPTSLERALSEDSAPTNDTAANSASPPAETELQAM
ASSAY OVERVIEW: FPR2 cyclic adenosine monophosphate (cAMP) assay
CONDITION CONTEXT: CHO cells overexpressing human FPR2; inhibition of forskolin-stimulated cAMP production; read-out: hFPR2 cAMP2 EC50
Method: FPR2 and FPR1 Cyclic Adenosine Monophosphate (cAMP) Assays. […] The level of intracellular cAMP was determined using the HTRF HiRange cAMP assay reagent kit (Cisbio) according to manufacturer's instruction. […] After a 1-h room temperature incubation, time-resolved fluorescence intensity was measured using the Envision (Perkin-Elmer) at 400 nm excitation and dual emission at 590 nm and 665 nm. […]
Catalogue of molecules with associated log10(EC50)
For clarity, the numbers are log10 values of EC50 expressed in nM.

                                   molecule  number
0  COc1cc(F)c([C@@H]2CNC(=O)[C@H]2NC(=O)NC2(c3ccc4ncccc4n3)CC2)c(F)c1 [Example 4]    2.04
1  COc1cc(F)c([C@@H]2CNC(=O)[C@H]2NC(=O)NC2(c3ccc(C)c(Cl)c3)CC2)c(F)c1 [Example 50]    0.23
2  COc1cc(F)c([C@@H]2CNC(=O)[C@H]2NC(=O)NC2(c3ccc4ccccc4n3)CC2)c(F)c1 [Example 26]    0.81
3  COc1cc(F)c([C@@H]2CN(Cc3nnc(C)o3)C(=O)[C@H]2NC(=O)NC2(c3cccc(C)n3)CC2)c(F)c1 [Example 115]    1.40
4  COc1cc(F)c([C@@H]2CN(CC(F)(F)F)C(=O)[C@H]2NC(=O)NC2(c3cccc(C)n3)CC2)c(F)c1 [Example 110]    1.15

Memo: COc1cc(F)c([C@@H]2CNC(=O)[C@H]2NC(=O)NC2(c3nc4ccc(C)cc4s3)CC2)c(F)c1 [Example 85] , reported log10(EC50): 1.08

Per the record, COc1cc(F)c([C@@H]2CNC(=O)[C@H]2NC(=O)NC2(c3ccc4cc(OC)ccc4c3)CC2)c(F)c1 [Example 63] has log10(EC50) of 1.53

====

TARGET SYSTEM: human FPR1 (Homo sapiens)
Sequence (P21462 whole entry): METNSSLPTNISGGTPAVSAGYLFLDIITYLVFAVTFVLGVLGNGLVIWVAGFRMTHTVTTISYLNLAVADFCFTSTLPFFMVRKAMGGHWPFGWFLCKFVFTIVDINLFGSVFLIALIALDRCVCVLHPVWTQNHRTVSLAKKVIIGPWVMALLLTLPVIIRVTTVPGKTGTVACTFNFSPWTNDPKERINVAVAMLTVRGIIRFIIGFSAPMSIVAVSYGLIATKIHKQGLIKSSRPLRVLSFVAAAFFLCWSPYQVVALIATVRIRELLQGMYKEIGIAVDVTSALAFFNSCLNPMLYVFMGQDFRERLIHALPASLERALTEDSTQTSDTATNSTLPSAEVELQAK
ASSAY OVERVIEW: FPR1 cyclic adenosine monophosphate (cAMP) assay
Format: cell-based
CONDITION CONTEXT: CHO cells overexpressing human FPR1; inhibition of forskolin-stimulated cAMP production; read-out: hFPR1 cAMP EC50
pEC50 overview
pEC50 (log units): -log10 of the concentration in mol/L.

>>> df
                                   compound  reported_endpoint  number
0  COc1cc(F)c([C@@H]2CN(Cc3nnc(C)o3)C(=O)[C@H]2NC(=O)NC2(c3cccc(C)n3)CC2)c(F)c1 [Example 115]              pEC50    6.55
1  COc1cc(F)c([C@@H]2CNC(=O)[C@H]2NC(=O)NC2(c3ccc4cc(Cl)ccc4n3)CC2)c(F)c1 [Example 53]              pEC50    6.37
2  COc1cc(F)c([C@@H]2CNC(=O)[C@H]2NC(=O)NC2(c3nc4ccc(C)cc4s3)CC2)c(F)c1 [Example 85]              pEC50    5.80
3  COc1cc(F)c([C@@H]2CN(CC3CC3)C(=O)[C@H]2NC(=O)NC2(c3cccc(C)n3)CC2)c(F)c1 [Example 94]              pEC50    7.59
4  COc1cc(F)c([C@@H]2CNC(=O)[C@H]2NC(=O)NC2(c3nc4c(C(F)(F)F)cccc4s3)CC2)c(F)c1 [Example 96]              pEC50    6.92
5  COc1cc(F)c([C@@H]2CNC(=O)[C@H]2NC(=O)NC2(c3cccc(Cl)n3)CC2)c(F)c1 [Example 1]              pEC50    6.09

From here, focus on the item given below.
Noted pEC50 for COc1cc(F)c([C@@H]2CNC(=O)[C@H]2NC(=O)NC2(c3ccc(C)cc3)CC2)c(F)c1 [Example 2] , tested on human FPR1 (Homo sapiens): 6.18

Origin of the recorded values: patent US11180490B2
